Assay: Comment Code material properties: vapor pressure, ClogP, probability of ingredient color instability, odor detection threshold, melamine formaldehyde PMC headspace response ratio and leakage, liquid dish neat product liquid-air partition coefficient
Type: physicochemical
Details: cell strings several class symbols together; each letter is one property class of L1
Quantity: Comment Code

{"Compound": "C=CC(C)(CCC=C(C)C)OC(C)=O (stereo not drawn)", "Readout value": "BDHJK"}
{"Compound": "COC(C)(C)C1CC=C(C)CC1 (stereo not drawn)", "Readout value": "ADHIJKL"}
{"Compound": "C=CC(C)(CCC=C(C)C)OC(=O)CCC (stereo not drawn)", "Readout value": "BDEFHJK"}
{"Compound": "CCC(C)(CCCC(C)C)OC(C)=O (stereo not drawn)", "Readout value": "ADEFHJKL"}
{"Compound": "C=CCOC(=O)COC1CCCCC1", "Readout value": "CHJK"}
{"Compound": "CC1C(C)(C)C2=C(C3OC(C)(C)OC3CC2)C1(C)C (stereo not drawn)", "Readout value": "DEFHJK"}
{"Compound": "CC(=O)[C@@]1(C)CC2=C(CCCC2(C)C)C[C@@H]1C", "Readout value": "DHJK"}
{"Compound": "CC=CCOCC/C=C\\CC", "Readout value": "ADEFHJKL"}

For the next question, use this compound.
Q: Tell me the measured Comment Code of CC1(C)C2CCC3(C2)C1C1(CCC3(C)C)OCCO1 (stereo not drawn) , please.
Ans: DEFHJK

* * *

Experiment: Comment Code material properties: vapor pressure, ClogP, probability of ingredient color instability, odor detection threshold, melamine formaldehyde PMC headspace response ratio and leakage, liquid dish neat product liquid-air partition coefficient
Type: physicochemical
Details: Table 1 materials; each letter of the code is one property class (vapor pressure, ClogP, color instability, odor detection threshold, PMC headspace ratio, PMC leakage, liquid dish liquid-air partition coefficient)
Quantity: Comment Code

{"Molecule": "O=C(Cc1ccccc1)OCc1ccccc1", "Readout value": "DHJ"}
{"Molecule": "O=C(Cc1ccccc1)OCCc1ccccc1", "Readout value": "DHJ"}
{"Molecule": "CC(C)=CCCC1=CCC(C)(C=O)CC1 (stereo not drawn) [Material 988]", "Readout value": "DFHJK"}
{"Molecule": "CC1=CC2C(C(C)C)CCC(C)(O)C2CC1 (stereo not drawn) [Material 1047]", "Readout value": "DEFHJK"}
{"Molecule": "CCC=CCC=CC=CC(=O)OCC", "Readout value": "BDEFHJK"}

Q: Quick check: Comment Code of Cc1ccc(CC(C)C=O)cc1 (stereo not drawn) ?
Ans: ACHJK

Q: Sample CC(C)=CCC/C(C)=C/CC/C(C)=C/CO — what was its Comment Code?
Ans: DEFHJK

Q: Need Comment Code, item C[C@@H]1CCC=C2CC[C@@H](C(C)(C)O)C[C@]21C
Ans: DEFHJK

* * *

Experiment: Comment Code material properties: vapor pressure, ClogP, probability of ingredient color instability, odor detection threshold, melamine formaldehyde PMC headspace response ratio and leakage, liquid dish neat product liquid-air partition coefficient
Type: physicochemical
Settings: cell strings several class symbols together; each letter is one property class of L1
Quantity: Comment Code

{"Molecule": "CCC(C)CC(CC)CCCC(C)O (stereo not drawn) [Material 779]", "Comment Code": "BDEFGIJKL"}
{"Molecule": "CC(C)C(=O)OC1CC2CCC1(C)C2(C)C (stereo not drawn) [Material 229]", "Comment Code": "BDEFHIJK"}
{"Molecule": "CC1=CC(C)C2(CCCC(C)(C)C2=O)CC1 (stereo not drawn) [Material 1022]", "Comment Code": "DHIJK"}
{"Molecule": "CC1=CCC(C=CC(C)(C)C(C)O)C1(C)C (stereo not drawn) [Material 53]", "Comment Code": "CEFHJ"}
{"Molecule": "CC(C)C1CCC(CO)CC1 (stereo not drawn) [Material 133]", "Comment Code": "BDEFHIJK"}

Could you now consider this next molecule?
Q: Reported Comment Code, molecule CCC(C)(O)CCCC(C)C (stereo not drawn) [Material 1054] : ____
Ans: BDEFGIJKL
